Biological target: purified recombinant human GAC (GLS1) (Homo sapiens (Human), UniProt O94925)
Sequence (O94925 other isoform, or with tags, fused parts or gaps): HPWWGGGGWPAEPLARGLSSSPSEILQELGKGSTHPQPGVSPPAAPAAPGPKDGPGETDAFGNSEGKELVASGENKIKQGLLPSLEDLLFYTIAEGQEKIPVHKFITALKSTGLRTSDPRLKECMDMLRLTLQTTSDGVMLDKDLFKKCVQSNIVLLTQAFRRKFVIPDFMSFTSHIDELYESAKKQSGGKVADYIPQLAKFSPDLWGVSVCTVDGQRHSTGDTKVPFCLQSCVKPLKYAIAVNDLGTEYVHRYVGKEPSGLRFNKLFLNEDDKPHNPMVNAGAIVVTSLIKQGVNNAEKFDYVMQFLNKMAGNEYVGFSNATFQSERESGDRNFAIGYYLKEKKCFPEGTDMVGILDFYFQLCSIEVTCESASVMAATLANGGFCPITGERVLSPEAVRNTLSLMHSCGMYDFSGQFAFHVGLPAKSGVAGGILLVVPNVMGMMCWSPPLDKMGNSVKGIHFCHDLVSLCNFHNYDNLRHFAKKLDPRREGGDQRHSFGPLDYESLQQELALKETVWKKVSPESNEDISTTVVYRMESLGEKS
Test: GLS1 Enzymatic Activity Assay (dual-coupled enzymatic assay, resorufin/Amplex UltraRed readout)
observable: IC50

Query block: # IC50 lookup, item O=C(NCc1ccccc1F)c1cn(CCC(F)Cn2cc(C(=O)NCc3cc(C(F)(F)F)ccn3)nn2)nn1 (centres unmarked) [Example 454]
Result block: < 100 nM

Query block: # IC50 lookup, item CC(C)CCNCc1cn(CCCCn2cc(C(=O)NCc3cccc(OC(F)(F)F)c3)nn2)nn1 [Example 57]
Result block: 500 to 5000 nM

Query block: # IC50 lookup, item CNC(=O)c1cn(CCCCc2ccc(NC(=O)Cc3cccc(S(C)(=O)=O)c3)nn2)nn1 [Example 543]
Result block: < 100 nM

Query block: # IC50 lookup, item O=C(Cc1cc(OC(F)(F)F)ccc1F)Nc1nnc(CCC(F)Cn2cc(C(=O)NCc3ccccn3)nn2)s1 (centres unmarked) [Example 204]
Result block: < 100 nM

Query block: # IC50 lookup, item O=C(CN1CCC(F)(F)CC1)Nc1cn(CCCCn2cc(C(=O)NCc3ncccc3F)nn2)nn1 [Example 361]
Result block: 500 to 5000 nM

Query block: # IC50 lookup, item O=C(NCc1cccc(C2CC2)c1)c1cn(CCCCn2cc(C(=O)NCc3cncc(C(F)(F)F)c3)nn2)nn1 [Example 133]
Result block: < 100 nM

Query block: # IC50 lookup, item O=C(CN1CC(F)(F)C1)Nc1cn(CCCCn2cc(C(=O)NCc3cc(Cl)ccc3F)nn2)nn1 [Example 352]
Result block: 100 to 500 nM

Query block: # IC50 lookup, item CNC(=O)c1cn(CC(F)CCc2nnc(C(=O)NCc3cccc(OC(F)(F)F)c3)s2)nn1 (centres unmarked) [Example 561]
Result block: < 100 nM

----------
Hi there, I'd appreciate the recorded pIC50 for every entry that follows.
Target: purified recombinant human GAC (GLS1) (Homo sapiens (Human))
Assay: GLS1 Enzymatic Activity Assay (dual-coupled enzymatic assay, resorufin/Amplex UltraRed readout)
pIC50: −log10 of the molar value.

Query block: What measured pIC50 is associated with `O=C(Cc1ccccn1)Nc1cn(CCCCn2cc(C(=O)NCC3CC3)nn2)nn1` on purified recombinant human GAC (GLS1) (Homo sapiens (Human))?
Result block: 5.30 to 6.30

Query block: What measured pIC50 is associated with O=C(NCc1cncc(C(F)(F)F)c1)c1cn(CC(F)CCc2nnc(C(=O)NCc3cccc(C(F)(F)F)n3)s2)nn1 (stereo not drawn) on purified recombinant human GAC (GLS1) (Homo sapiens (Human))?
Result block: > 7.00

Query block: What measured pIC50 is associated with `O=C(Cc1cccnc1)Nc1ccc(CCCCc2nnc(C(=O)NCCc3ccccc3)s2)nn1` on purified recombinant human GAC (GLS1) (Homo sapiens (Human))?
Result block: > 7.00

Query block: What measured pIC50 is associated with `O=C(NCc1cccc(C(F)(F)F)c1)c1cn(CCCCn2cc(C(=O)NCC3CCOCC3)nn2)nn1` on purified recombinant human GAC (GLS1) (Homo sapiens (Human))?
Result block: 6.30 to 7.00

Query block: What measured pIC50 is associated with O=C(NCc1cc(OC(F)(F)F)ccc1F)c1cn(CCC(F)Cn2cc(C(=O)N[C@@H](CO)c3ccccc3)nn2)nn1 (stereo partly drawn) on purified recombinant human GAC (GLS1) (Homo sapiens (Human))?
Result block: > 7.00

Query block: What measured pIC50 is associated with Cc1ccc(CC(=O)Nc2cn(CC(F)CCn3cc(C(=O)NCc4cc(OC(F)(F)F)ccc4F)nn3)nn2)cn1 (stereo not drawn) on purified recombinant human GAC (GLS1) (Homo sapiens (Human))?
Result block: > 7.00

Query block: What measured pIC50 is associated with `O=C(NCc1cccc(OC(F)(F)F)c1)c1cn(CCCCn2cc(C(=O)NCc3cc(C4CC4)ccn3)nn2)nn1` on purified recombinant human GAC (GLS1) (Homo sapiens (Human))?
Result block: > 7.00

Query block: What measured pIC50 is associated with `COC(=O)Nc1ccc(CCCCn2cc(C(=O)NCc3cc(C(F)(F)F)ccn3)nn2)nn1` on purified recombinant human GAC (GLS1) (Homo sapiens (Human))?
Result block: 6.30 to 7.00

Query block: What measured pIC50 is associated with Cc1ccc(CNC(=O)c2nnc(CCC(F)Cn3cc(C(=O)NCc4cccc(OC(F)(F)F)c4)nn3)s2)cn1 (stereo not drawn) on purified recombinant human GAC (GLS1) (Homo sapiens (Human))?
Result block: > 7.00

Query block: What measured pIC50 is associated with `O=C(CC1CCCC1)Nc1cn(CCCCn2cc(C(=O)NCc3ccccn3)nn2)nn1` on purified recombinant human GAC (GLS1) (Homo sapiens (Human))?
Result block: 6.30 to 7.00

Query block: What measured pIC50 is associated with O=C(NCc1cc(C(F)(F)F)ccn1)c1cn(CCC(F)Cn2cc(C(=O)NCc3cccc(OC(F)(F)F)c3)nn2)nn1 (stereo not drawn) on purified recombinant human GAC (GLS1) (Homo sapiens (Human))?
Result block: > 7.00

Query block: What measured pIC50 is associated with O=C(Cc1cc(OC(F)(F)F)ccc1F)Nc1nnc(CCC(F)Cn2cc(C(=O)NCc3cc(C(F)(F)F)ccn3)nn2)s1 (stereo not drawn) on purified recombinant human GAC (GLS1) (Homo sapiens (Human))?
Result block: > 7.00

Query block: What measured pIC50 is associated with `O=C(Cc1ccccn1)Nc1nnc(CCCCn2cc(C(=O)NCc3cc(OC(F)(F)F)ccc3F)nn2)s1` on purified recombinant human GAC (GLS1) (Homo sapiens (Human))?
Result block: > 7.00

Query block: What measured pIC50 is associated with `O=C(NCc1cncc(C(F)(F)F)c1)c1cn(CCCCn2cc(C(=O)NCC3CCCC3)nn2)nn1` on purified recombinant human GAC (GLS1) (Homo sapiens (Human))?
Result block: 6.30 to 7.00

Query block: What measured pIC50 is associated with `O=C(NCc1cccc(C2CC2)c1)c1cn(CCCCn2cc(C(=O)NCc3cc(C(F)(F)F)ccn3)nn2)nn1` on purified recombinant human GAC (GLS1) (Homo sapiens (Human))?
Result block: > 7.00

----------
Target: purified recombinant human GAC (GLS1) (Homo sapiens (Human), UniProt O94925)
Assay: GLS1 Enzymatic Activity Assay (dual-coupled enzymatic assay, resorufin/Amplex UltraRed readout);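 note: glutamate from GAC coupled via glutamate oxidase and peroxidase to resorufin, read as fluorescence (ex 530, em 590 nm) kinetically or at 20 min, four-parameter logistic IC50 fit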
Type: biochemical
pIC50: −log10 of the molar value.
observable: pIC50

Query block: # pIC50 lookup, item `Cc1ccc(CNC(=O)c2cn(CCCCn3cc(NC(=O)Cc4cc(OC(F)(F)F)ccc4F)nn3)nn2)cn1`
Result block: > 7.00

Query block: # pIC50 lookup, item O=C(NCc1cccc(C(F)(F)F)c1)c1cn(CCCCn2cc(C(=O)NCC3CCCOC3)nn2)nn1 (stereo not drawn)
Result block: 6.30 to 7.00

Query block: # pIC50 lookup, item Cc1ccnc(CNC(=O)c2cn(CCC(F)Cn3cc(C(=O)NCc4cc(C(F)(F)F)ccn4)nn3)nn2)c1 (stereo not drawn)
Result block: > 7.00

Query block: # pIC50 lookup, item `O=C(NCc1cccc(OC(F)(F)F)c1)c1cn(CCCCn2cc(C(=O)NC[C@H](O)c3ccccc3)nn2)nn1`
Result block: 6.30 to 7.00

Query block: # pIC50 lookup, item `O=C(CC1CC1)Nc1cn(CCCCn2cc(C(=O)NCC3CCCCC3)nn2)nn1`
Result block: 5.30 to 6.30

Query block: # pIC50 lookup, item CNC(=O)c1cn(CC(F)CCc2nnc(C(=O)NCc3cc(OC(F)(F)F)ccc3F)s2)nn1 (stereo not drawn)
Result block: > 7.00

Query block: # pIC50 lookup, item O=C(NCc1cccc(OC(F)(F)F)c1)c1cn(CCC(F)Cn2cc(C(=O)N[C@@H](CO)c3ccccc3)nn2)nn1 (stereo partly drawn)
Result block: 6.30 to 7.00

Query block: # pIC50 lookup, item `Cc1ccc(CNC(=O)c2cn(CCCCn3cc(NC(=O)CC4CC4)nn3)nn2)cn1`
Result block: 5.30 to 6.30

Query block: # pIC50 lookup, item CNC(=O)c1cn(CC(F)CCn2cc(NC(=O)Cc3cccc(OC(F)(F)F)c3)nn2)nn1 (stereo not drawn)
Result block: > 7.00

Query block: # pIC50 lookup, item O=C(NCc1cc(C(F)(F)F)ccn1)c1cn(CCC(F)Cn2cc(C(=O)NCc3cc(C(F)(F)F)ccn3)nn2)nn1 (stereo not drawn)
Result block: > 7.00

Query block: # pIC50 lookup, item `C[C@H](NC(=O)c1cn(CCCCn2cc(C(=O)NCc3cc(C(F)(F)F)ccn3)nn2)nn1)c1ccccc1`
Result block: 5.30 to 6.30

Query block: # pIC50 lookup, item CNC(=O)c1cn(CC(F)CCc2nnc(C(=O)NCc3cc(C(F)(F)F)ccn3)s2)nn1 (racemic)
Result block: 6.30 to 7.00

Query block: # pIC50 lookup, item `O=C(NCc1cncc(C(F)(F)F)c1)c1cn(CCCCn2cc(C(=O)NCc3cc(C(F)(F)F)ccn3)nn2)nn1`
Result block: > 7.00

Query block: # pIC50 lookup, item `Cc1ccc(CC(=O)Nc2cn(CCCCn3cc(C(=O)NCc4cc(Cl)ccc4F)nn3)nn2)cn1`
Result block: > 7.00

Query block: # pIC50 lookup, item O=C(NCc1cc(OC(F)(F)F)ccc1F)c1cn(CC(F)CCc2nnc(C(=O)NCc3ccc(C(F)(F)F)cn3)s2)nn1 (stereo not drawn)
Result block: > 7.00
